Test: S. cerevisiae growth inhibition in restrictive medium, OD615, pilot screen, restrictive growth control, yeast lifespan reduction project (AID 706);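 further: modified DeaD lifespan yeast strain shifted to restrictive glucose medium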
Settings: OD615, 48 h, at 10 µM
Activity calls are given as the source filed them.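 How the source made its calls: active means growth inhibition above a set limit, 3 SD over mean compound inhibition, in both replicates (cut at about 43% in these data); inconclusive means above the limit in only one replicate; inactive means at or below the limit in both replicates.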
Your response should consist of one outcome taken from 1 (active), 0 (inactive)

- CN1CCN(C(=O)c2ccccc2NC(=O)c2cccs2)CC1: 0
- O=C(CN1CCOc2ccccc21)NCc1ccco1: 0
- Cc1ccc(N2C(=O)c3ccc(C(=O)N4CCN(c5ccccc5F)CC4)cc3C2=O)cc1: 0
- CCCCCCn1c(SCC(=O)OC)nc2c1c(=O)[nH]c(=O)n2C: 0
- CSc1nnc(NC(=O)c2cc3ccccc3oc2=O)s1: 0
- COc1ccc(C(=O)c2coc3ccc(O)c(CN4CCCCC4)c23)cc1: 0
- O=C(NCc1cccs1)C(Cc1ccccc1)n1cccc1 (stereo unspecified): 0
- COc1ccc(N(CC(=O)Nc2cccc(SC)c2)S(C)(=O)=O)cc1Cl: 0
- CCN(CC)C1CCCCC1NS(=O)(=O)c1ccc(Cl)cc1 (stereo unspecified): 0
- O=C(Nc1ccc2c(c1)OCCO2)C1CCN(C(=O)c2ccc(F)cc2)CC1: 0

Query: recorded result category for CCCCOC(=O)Nc1nc2ccc(OC)cc2s1 in this test 0

Query: recorded result category for CCOC(=O)C1C(C)N=C2SCC(=O)N2C1c1cccc(Br)c1 (stereo unspecified) in this test 1

Query: recorded result category for CCOC(=O)N1CCN(C(=O)CSc2nnc(-c3cccc(Cl)c3)o2)CC1 in this test 0

Query: recorded result category for O=C(NCCSCc1ccco1)c1ccc(CN2CCOCC2)cc1 in this test 0

Query: recorded result category for C(=N\c1nccs1)/c1cccnc1 in this test 0

Query: recorded result category for COC(=O)CSC1=C(C#N)C(c2ccc(F)cc2)CC(=O)N1 (stereo unspecified) in this test 0

Query: recorded result category for O=C(Cn1cc2c(n1)CCCC2)NC1CCN(Cc2ccccc2)CC1 in this test 0

Query: recorded result category for COC(=O)CCCCCc1ccc(C(C)=O)s1 in this test 0

Query: recorded result category for COc1ccc(N(CC(=O)Nc2nc3ccc(C)cc3s2)S(=O)(=O)c2c(C)nn(C)c2C)cc1 in this test 0

Query: recorded result category for COc1ccccc1NC(=O)C1=C(C)Nc2nc(-c3cccs3)nn2C1c1cccnc1 (stereo unspecified) in this test 0

Query: recorded result category for CCOc1ccc(N2C(=O)CC(N3CC(C)OC(C)C3)C2=O)cc1 (stereo unspecified) in this test 0

Query: recorded result category for COc1ccc(-n2nnc3c(=O)n(CC(=O)N4CCC(C)CC4)cnc32)cc1 in this test 0

Query: recorded result category for Cc1csc(C(C#N)C(=O)c2cc3ccccc3o2)n1 (stereo unspecified) in this test 0

Query: recorded result category for O=C(c1cccc(F)c1)N1CCc2ccccc21 in this test 0

====

Assay: H69AR cell proliferation blockers – human, duplicate replicates, primary screen (AID 580);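 further: 100% = mean luminescence of untreated wells and 0% = no signal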
Details: H69AR lung tumor cells viability, ATP luminescence, 72 h; at 10 µM; stronger effect = lower value
Doc: threshold 90% (exclusive). Items with viability beneath it return Satisfied; others return Not satisfied.

Record excerpt, results attached:
* c1ccc(C(Cc2nc(-c3ccccn3)no2)c2ccccc2)cc1 | Not satisfied
* Cc1cc(C)cc(N2C(=O)CC(N3CCOCC3)C2=O)c1 (stereo unspecified) | Not satisfied

Next compound, please.
Bench note: check whether CC(C(=O)N1CC2(C)CC1CC(C)(C)C2)N1C(=O)c2ccccc2C1=O (stereo unspecified) shows viability below 90% Not satisfied
